Origin of the recorded values: patent US20120177664A1

- Tested on: T1, A beta oligomer (synthetic A beta1-40, HCl form, 0.1 mg/ml in PBS, incubated at 37 degrees C for one hour) (UniProt P05067 672-711)
- T1 construct: domain: A beta1-40; non-fibrous multimer of the peptide; also called A beta 1-40 oligomer
- Protocol notes: SPR (Biacore 3000)
Measured koff, listed per entry for reference.
Supply the numeric figure in s⁻¹, leaving out any unit text.

Example entries and their recorded answers appear below.
{"columns": ["Binder", "koff [s⁻¹]"],
 "data": [
  ["IR-155 antibody (antibody, V domains shown, mouse IgG2a) VH: DVQLVESGGGLVQPGGSRKLSCAASGFTFSSFGMHWVRQAPEKGLEWVAYISSGSSTIYYADTVKGRFTISRDNPKNTLFLQMTSLRSEDTAMYYCARLDGYRGDYWGQGTTLTVSS VL: DVVMTQTPLSLPVSLGDQASISCRSSQSLVHSNGNTYLHWYLQKPGQSPKLLIYKVSNRFSGVPDRFSGSGSGTDFTLKISRVEAEDLGVYFCSQSTHVPLTFGSGTKLEIK", 0.37],
  ["IR-121 antibody (antibody, mouse IgG2b, V domains shown, mouse IgG2b) VH: DVQLVESGGGLVQPGGSRKLSCAASGFTFSSFGMHWVRQAPEKGLEWVAYISSGSSTIYYADTVKGRFTISRDNPKNTLFLQMTSLRSEDTAMYYCATYGIYAMDYWGQGTSVTVSS VL: DVLMTQTPLSLPVSLGDQASISCRSSQSIVHSNGNTYLEWYLQKPGQSPKLLIYKVSNRFSGVPDRFSGSGSGTDFTLKISRVEAEDLGVYYCFQGSHVPPTFGGGTKLEIK", 0.00831]
]}

Let us examine a further case.
Prompt line: Which measured koff value corresponds to IR-083 antibody (antibody, mouse IgG2b, V domains shown, mouse IgG2b) VH: DVQLVESGGGLVQPGGSRKLSCAASGFTFSRFGMYWVRQAPEKGLEWVAYISSGSSTIYYADIVKGRFTISRDNPKNTLFLQMTSLRSEDTAMYYCARRGYYEAMDYWGQGTSVTVSS VL: DVLMTQTPLSLPVSLGDQASISCRSSQSIVHSNGNTYLEWYLQKPGQSPKLLIYKVSNRFSGVPDRFSGSGSGTDFTLKISRVEADDLGVYYCFQGSHVPPTFGGGTKLEIK ?
Response line: 0.431
